Where do these numbers come from? They come from patent US5070210A.

# Tested on: Cabbage Looper [Trichoplusia ni (Hubner)]
# measurement_description: Cabbage looper insecticidal test
# Format: in vivo
# condition_notes: second-instar larvae, percent in solution; 3-5 days
Below, each of the compounds is paired with its reported LC50, CL value.
reported_metric: LC50, CL

1. CC(C)C(=Nc1ccc2c(c1)OCO2)OCc1ccnc(Oc2ccccc2)c1 : < 0.1%
2. CC(C)C(=Nc1ccc(C(F)(F)F)cc1)OCc1cccc(Cc2ccccc2)c1 [Compound 543] : 0.0008%
3. CC(C)C(=Nc1ccc2c(c1)OCO2)OCc1cccc(Oc2ccc(C(C)(C)C)cc2)c1 : < 0.1%

====

Below, each of the compounds is paired with its reported LC50, CL value.
# Tested on: Cabbage Looper [Trichoplusia ni (Hubner)]
# measurement_description: Cabbage looper insecticidal test
# Type: in vivo
# condition_notes: second-instar larvae, percent in solution; 3-5 days
reported_metric: LC50, CL (%)

1) CC(C)C(=Nc1cccc(C(F)(F)F)c1)OCc1ccnc(Oc2ccccc2)c1 [Compound 507] : 0.002
2) CC(C)C(=Nc1ccc(Cl)c(Cl)c1)OCc1ccc(F)c(Oc2ccc(F)cc2)c1 [Compound 289] : 0.00007
3) CC(C)C(=Nc1ccc(F)c(C(F)(F)F)c1)OCc1cccc(Oc2ccc(F)cc2)c1 [Compound 120] : 0.00015
4) CC(C)C(=Nc1cc(F)ccc1Cl)OCc1ccc(F)c(Oc2ccc(F)cc2)c1 [Compound 303] : 0.0015
5) CCCC(=Nc1ccc(F)c(Cl)c1)OCc1cccc(Oc2ccccc2)c1 [Compound 123] : 0.012
6) CC(C)C(=Nc1cccc(C(F)(F)F)c1)OCc1cccc(Oc2ccncc2)c1 [Compound 469] : 0.02
7) CC(C)C(=Nc1ccc(F)c(Cl)c1)OCc1cccc(Oc2ccc(I)cc2)c1 [Compound 447] : 0.0009
8) CC(C)C(=Nc1ccc(C#N)cc1)OCc1ccc(F)c(Oc2ccc(F)cc2)c1 [Compound 394] : 0.00025
9) CC(C)C(=Nc1ccc(F)c(Cl)c1)OCc1cccc(Oc2ccc(F)c(F)c2)c1 [Compound 217] : 0.00006
10) CC(C)C(=Nc1cc(F)cc(F)c1)OCc1cccc(Oc2ccccc2)c1 [Compound 55] : 0.0017
11) CC(C)(C)C(=Nc1ccc(Cl)c([N+](=O)[O-])c1)OCc1cccc(Oc2ccccc2)c1 [Compound 105] : 0.018
12) C=C(C)C(=Nc1ccc(F)c(Cl)c1)OCc1cccc(Oc2ccccc2)c1 [Compound 417] : 0.0008
